src = paper PMC12406204

molecular target: CB2R (Homo sapiens, UniProt P34972); test: CB2R cAMP determination after forskolin stimulation in transfected HEK-293T cells; assay type: cell-based; parameters: expressed in transfected cells; host or cells: HEK-293T, transient transfection (PEI); conditions: transfected HEK-293T cells, forskolin-stimulated cAMP; read-out: CB2R EC50 AMPc
Sequence (P34972 whole entry): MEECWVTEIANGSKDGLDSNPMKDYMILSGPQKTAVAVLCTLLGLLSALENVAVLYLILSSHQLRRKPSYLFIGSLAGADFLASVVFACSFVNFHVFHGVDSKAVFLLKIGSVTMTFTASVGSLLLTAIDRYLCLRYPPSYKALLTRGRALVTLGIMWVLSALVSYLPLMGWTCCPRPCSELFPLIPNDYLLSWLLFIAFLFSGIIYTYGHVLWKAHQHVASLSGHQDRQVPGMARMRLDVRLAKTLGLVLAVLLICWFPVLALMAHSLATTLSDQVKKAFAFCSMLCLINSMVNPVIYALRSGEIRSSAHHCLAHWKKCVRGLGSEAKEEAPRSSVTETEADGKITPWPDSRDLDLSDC
PROPERTY_NAME: pEC50
Expect pEC50 as a plain number equal to -log10 of the molar concentration.

>>> measured("NC(=O)[C@@H]1CCCCN1C(=O)c1cn(CC2CCCCC2)c2ccccc12 [18e]")
5.77

GET /values?readout=pEC50&system=CB2R (Homo sapiens, UniProt P34972)&item= NC(=O)[C@H]1CCCCN1C(=O)c1cn(CC2CCCCC2)c2ccccc12 [18f] 6.93

GET /values?readout=pEC50&system=CB2R (Homo sapiens, UniProt P34972)&item= CCCCCn1nc(C(=O)N2CCCC[C@@H]2C(=O)OC)c2ccccc21 [16j] 10.05

* * *

target: CB2R (Homo sapiens); experiment: CB2R radioligand binding competition ([3H]CP55,940); set-up: expressed in transfected cells; host or cells: HEK-293T (HEK-CB2 cell line); settings: selectivity index, affinity ratio
PROPERTY_NAME: SI Ki CB1R/Ki CB2R

Would you please look over these solved cases?
>>> measured("COc1ccc2c(c1)c(CCN1CCOCC1)c(C)n2C(=O)c1cccc(Cl)c1Cl [GW405833, reference compound]")
822
>>> measured("COC(=O)[C@H]1CCCN1C(=O)c1nn(Cc2ccc(F)cc2)c2ccccc12 [15p]")
">100"

What measured SI Ki CB1R/Ki CB2R goes with NC(=O)[C@H]1CCCCN1C(=O)c1nn(CCCCCF)c2ccccc12 [18l] ? >100

What measured SI Ki CB1R/Ki CB2R goes with NC(=O)[C@@H]1CCCCN1C(=O)c1cn(CC2CCCCC2)c2ccccc12 [18e] ? >100

What measured SI Ki CB1R/Ki CB2R goes with COC(=O)[C@H]1CCCN1C(=O)c1nn(CCCCCF)c2ccccc12 [15l] ? >100

What measured SI Ki CB1R/Ki CB2R goes with COC(=O)[C@@H]1CCCN1C(=O)c1nn(CC2CCCCC2)c2ccccc12 [15m] ? 3

What measured SI Ki CB1R/Ki CB2R goes with COC(=O)[C@@H]1CCCN1C(=O)c1nn(CCCCCF)c2ccccc12 [15k] ? 4

What measured SI Ki CB1R/Ki CB2R goes with CCCCCn1nc(C(=O)N2CCCC[C@H]2C(N)=O)c2ccccc21 [18i] ? >100

What measured SI Ki CB1R/Ki CB2R goes with COC(=O)[C@H]1CCCN1C(=O)c1cn(Cc2ccc(F)cc2)c2ccccc12 [15h] ? >100

* * *

biological target: CB2R (Homo sapiens); test: CB2R radioligand binding competition ([3H]CP55,940); design: expressed in transfected cells; host or cells: HEK-293T (HEK-CB2 cell line); conditions: percentage displacement of specific [3H]CP 55,940 binding at 1 μM, n = 2
CB2R % at 1 μM: recorded values
Answer format: numeric, % implied, no suffix.

Would you please look over these solved cases?
>>> measured("CCCCCn1cc(C(=O)N2CCC[C@@H]2C(=O)OC)c2ccccc21 [15b]")
25
>>> measured("NC(=O)[C@@H]1CCCN1C(=O)c1cn(CCCCCF)c2ccccc12 [17c]")
15
>>> measured("NC(=O)[C@@H]1CCCN1C(=O)c1nn(CCCCCF)c2ccccc12 [17k]")
17
>>> measured("NC(=O)[C@H]1CCCN1C(=O)c1nn(Cc2ccc(F)cc2)c2ccccc12 [17p]")
12
>>> measured("NC(=O)[C@@H]1CCCN1C(=O)c1cn(Cc2ccc(F)cc2)c2ccccc12 [17g]")
20

What measured CB2R % at 1 μM goes with CCCCCn1cc(C(=O)N2CCC[C@H]2C(N)=O)c2ccccc21 [17a] ? 24

What measured CB2R % at 1 μM goes with NC(=O)[C@H]1CCCN1C(=O)c1nn(CC2CCCCC2)c2ccccc12 [17n] ? 28

What measured CB2R % at 1 μM goes with NC(=O)[C@@H]1CCCN1C(=O)c1nn(CC2CCCCC2)c2ccccc12 [17m] ? 27

What measured CB2R % at 1 μM goes with CCCCCn1cc(C(=O)N2CCC[C@@H]2C(N)=O)c2ccccc21 [17b] ? 17

What measured CB2R % at 1 μM goes with CCCCCn1nc(C(=O)N2CCC[C@H]2C(N)=O)c2ccccc21 [17i] ? 31

What measured CB2R % at 1 μM goes with COC(=O)[C@H]1CCCN1C(=O)c1cn(CCCCCF)c2ccccc12 [15d] ? 26

What measured CB2R % at 1 μM goes with NC(=O)[C@H]1CCCN1C(=O)c1nn(CCCCCF)c2ccccc12 [17l] ? 25

What measured CB2R % at 1 μM goes with NC(=O)[C@H]1CCCN1C(=O)c1cn(CCCCCF)c2ccccc12 [17d] ? 16

What measured CB2R % at 1 μM goes with NC(=O)[C@H]1CCCN1C(=O)c1cn(Cc2ccc(F)cc2)c2ccccc12 [17h] ? 7

What measured CB2R % at 1 μM goes with CCCCCn1nc(C(=O)N2CCC[C@@H]2C(N)=O)c2ccccc21 [17j] ? 28

* * *

SI Ki CB1R/Ki CB2R: recorded values
target: UniProt P34972; experiment: CB2R radioligand binding competition ([3H]CP55,940); design: expressed in transfected cells; host or cells: HEK-293T (HEK-CB2 cell line); details: selectivity index, affinity ratio

>>> measured("NC(=O)[C@H]1CCCCN1C(=O)c1cn(Cc2ccc(F)cc2)c2ccccc12 [18h]")
">100"

What measured SI Ki CB1R/Ki CB2R goes with COC(=O)[C@@H]1CCCCN1C(=O)c1nn(CC2CCCCC2)c2ccccc12 [16m] ? 31

What measured SI Ki CB1R/Ki CB2R goes with NC(=O)[C@@H]1CCCCN1C(=O)c1nn(CC2CCCCC2)c2ccccc12 [18m] ? >100

What measured SI Ki CB1R/Ki CB2R goes with NC(=O)[C@H]1CCCCN1C(=O)c1nn(Cc2ccc(F)cc2)c2ccccc12 [18p] ? >100

What measured SI Ki CB1R/Ki CB2R goes with COC(=O)[C@H]1CCCCN1C(=O)c1cn(Cc2ccc(F)cc2)c2ccccc12 [16h] ? >100

* * *

assay: Drug transport (BBB permeability) in Caco-2 monolayer; format: in vitro ADME; conditions: human, Caco-2; bidirectional permeability ratio; read-out: P app (BA/AB)
PROPERTY_NAME: efflux ratio at 120 min
Quick one: just the number, no unit, thanks!

Would you please look over these solved cases?
>>> measured("NC(=O)[C@@H]1CCCCN1C(=O)c1nn(Cc2ccc(F)cc2)c2ccccc12 [18o]")
0.39
>>> measured("NC(=O)[C@@H]1CCCCN1C(=O)c1cn(CC2CCCCC2)c2ccccc12 [18e]")
0.51
>>> measured("NC(=O)[C@H]1CCCCN1C(=O)c1nn(Cc2ccc(F)cc2)c2ccccc12 [18p]")
0.35

Kindly consider the entry below.
What measured efflux ratio at 120 min goes with NC(=O)[C@H]1CCCCN1C(=O)c1cn(CC2CCCCC2)c2ccccc12 [18f] ? 0.49

* * *

molecular target: CB2R (Homo sapiens); test: CB2R radioligand binding competition ([3H]CP55,940); parameters: expressed in transfected cells; host or cells: HEK-293T (HEK-CB2 cell line); conditions: displacement of [3H]CP 55,940, membranes of HEK-293T cells, n = 3
In plain terms, low Ki, meaning strictly below 40 nM, gives 1.0, and everything else gives 0.0.

Use these answered entries as a reference point.
>>> group_label("NC(=O)[C@@H]1CCCN1C(=O)c1nn(Cc2ccc(F)cc2)c2ccccc12 [17o]")
0.0
>>> group_label("COC(=O)[C@@H]1CCCN1C(=O)c1nn(Cc2ccc(F)cc2)c2ccccc12 [15o]")
1.0
>>> group_label("COC(=O)[C@@H]1CCCN1C(=O)c1cn(CC2CCCCC2)c2ccccc12 [15e]")
1.0

I wonder whether COC(=O)[C@@H]1CCCN1C(=O)c1nn(CC2CCCCC2)c2ccccc12 [15m] has Ki below 40 nM. Can you tell? 1.0

I wonder whether COC(=O)[C@H]1CCCN1C(=O)c1nn(CCCCCF)c2ccccc12 [15l] has Ki below 40 nM. Can you tell? 0.0

* * *

target: CB2R (Homo sapiens, UniProt P34972); assay: CB2R radioligand binding competition ([3H]CP55,940); set-up: expressed in transfected cells; host or cells: HEK-293T (HEK-CB2 cell line); settings: selectivity index, affinity ratio
SI Ki CB1R/Ki CB2R: recorded values

>>> measured("CCCCCn1cc(C(=O)N2CCCC[C@@H]2C(=O)OC)c2ccccc21 [16b]")
">100"
>>> measured("NC(=O)[C@@H]1CCCN1C(=O)c1nn(Cc2ccc(F)cc2)c2ccccc12 [17o]")
">100"
>>> measured("COC(=O)[C@@H]1CCCN1C(=O)c1nn(Cc2ccc(F)cc2)c2ccccc12 [15o]")
3
>>> measured("CCc1c(C(=O)NN2CCCCC2)nn(-c2ccc(Cl)cc2Cl)c1-c1ccc(Br)cc1 [Surinabant, reference compound]")
0.0075
>>> measured("CCCCCn1nc(C(=O)N2CCCC[C@@H]2C(=O)OC)c2ccccc21 [16j]")
">100"

What measured SI Ki CB1R/Ki CB2R goes with COC(=O)[C@@H]1CCCCN1C(=O)c1nn(Cc2ccc(F)cc2)c2ccccc12 [16o] ? 16

What measured SI Ki CB1R/Ki CB2R goes with COC(=O)[C@@H]1CCCCN1C(=O)c1cn(CCCCCF)c2ccccc12 [16c] ? 8

What measured SI Ki CB1R/Ki CB2R goes with CCCCCn1cc(C(=O)N2CCCC[C@H]2C(N)=O)c2ccccc21 [18a] ? >100

What measured SI Ki CB1R/Ki CB2R goes with CCCCCn1nc(C(=O)N2CCC[C@H]2C(=O)OC)c2ccccc21 [15i] ? 4
